- target-or-test-system: T1, SARS-CoV2 Spike ecto foldon Trimer expressed with a C-terminal myc-myc-hexahistidine (SARS-CoV-2, UniProt P0DTC2 14-1213)
- T1 construct: extracellular domain
- protocol: SPR Biacore, mAb captured by anti-hFc, 25C
# label = Satisfied if Kd < 0.05 nM else Not satisfied

Please determine if mAb14247 (antibody, V domains shown) VH: QITLKESGPTLVKPTQTLTLTCTFSGFSLSTSAVGVGWIRQPPGKALEWLALIYWDDDKRYSPSLKSRLTITKDTSKNQLVLTMTNVDPVDTATYYCAHHTIQLIFDYWGQGTLVTVSS VL: QSALTQPASVSGSPGQSITISCTATSSDVGNYNYVSWYQQHPGKAPKLMIYEVSNRPSGVSNRFSGSKSGNTASLTISGLQAEDEADYYCSSYTSSSTPLVFGGGTKLTVLG is below 0.05 nM in terms of Kd. Not satisfied

Please determine if mAb15165 (antibody, V domains shown) VH: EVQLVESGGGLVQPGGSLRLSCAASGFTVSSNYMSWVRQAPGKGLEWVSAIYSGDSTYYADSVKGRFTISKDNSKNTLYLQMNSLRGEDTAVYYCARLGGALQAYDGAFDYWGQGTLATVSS VL: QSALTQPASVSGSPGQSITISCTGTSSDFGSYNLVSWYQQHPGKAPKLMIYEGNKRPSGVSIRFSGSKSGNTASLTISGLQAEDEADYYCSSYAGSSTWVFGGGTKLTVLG is below 0.05 nM in terms of Kd. Satisfied

Please determine if mAb15158 (antibody, V domains shown) VH: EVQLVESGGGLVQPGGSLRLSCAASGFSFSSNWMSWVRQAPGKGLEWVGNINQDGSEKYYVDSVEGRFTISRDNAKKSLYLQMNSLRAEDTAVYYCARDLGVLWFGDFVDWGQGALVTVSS VL: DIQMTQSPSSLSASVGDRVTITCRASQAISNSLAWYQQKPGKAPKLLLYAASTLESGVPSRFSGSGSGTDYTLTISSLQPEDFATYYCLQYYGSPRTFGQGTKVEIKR is below 0.05 nM in terms of Kd. Not satisfied

Please determine if mAb14286 (antibody, V domains shown) VH: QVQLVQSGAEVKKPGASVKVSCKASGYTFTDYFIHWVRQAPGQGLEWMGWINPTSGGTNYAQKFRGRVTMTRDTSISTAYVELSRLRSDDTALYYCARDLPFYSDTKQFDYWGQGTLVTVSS VL: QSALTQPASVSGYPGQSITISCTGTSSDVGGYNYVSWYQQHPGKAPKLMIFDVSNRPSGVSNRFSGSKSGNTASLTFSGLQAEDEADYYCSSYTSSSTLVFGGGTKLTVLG is below 0.05 nM in terms of Kd. Satisfied

Please determine if mAb14257 (antibody, V domains shown) VH: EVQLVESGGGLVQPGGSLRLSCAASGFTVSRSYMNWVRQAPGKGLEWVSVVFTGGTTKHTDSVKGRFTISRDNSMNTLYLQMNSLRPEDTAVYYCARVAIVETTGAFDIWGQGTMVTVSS VL: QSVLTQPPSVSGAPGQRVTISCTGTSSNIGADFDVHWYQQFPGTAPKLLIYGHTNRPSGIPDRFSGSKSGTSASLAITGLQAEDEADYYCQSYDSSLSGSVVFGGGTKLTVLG is below 0.05 nM in terms of Kd. Satisfied
